assay: gradient 5% acetonitrile 3 min, to 50% in 2 min, to 85% in 15 min, held 3 min, 100 µL/min; conditions: column: Zorbax Extend-C18 2.1 x 50 mm; eluents: water / acetonitrile, 0.1% formic acid
PROPERTY_LABEL: RP-LC retention time (s)

1. Cc1ccc(C(=O)N2C[C@@H]3C[C@H]2C[C@@H]3NS(=O)(=O)c2cccs2)cc1F
2. CCn1ncc(C(=O)NCCn2c(C)cnc2C2CCC2)c1C
Ask | // compare: 1 vs 2 , metric RP-LC retention time, want the smaller Mark your answer with the label of the selected entry.
Reply | 2

1. CCN1CCN(C(=O)CSCc2nc3cccnc3n2C2CCCCC2)CC1
2. CCOC(=O)c1ccc(NC(=O)Cn2cccc(-c3nc(-c4ccc(F)cc4)no3)c2=O)cc1
Ask | // compare: 1 vs 2 , metric RP-LC retention time, want the smaller Mark your answer with the label of the selected entry.
Reply | 1
(1: 625 s, 2: 922 s)

* * *

assay: gradient 5% acetonitrile 3 min, to 50% in 2 min, to 85% in 15 min, held 3 min, 100 µL/min; conditions: column: Zorbax Extend-C18 2.1 x 50 mm; eluents: water / acetonitrile, 0.1% formic acid
PROPERTY_LABEL: RP-LC retention time (s)

MOLECULE: COc1ccccc1N1CCN(C(=O)c2sc3ncccc3c2-n2cccc2)CC1
RP-LC retention time / s: 963

MOLECULE: CC(C)N(C(=O)Cn1c(CN(C)C(=O)c2ccco2)nc2ccccc21)c1ccccc1
RP-LC retention time / s: 725

MOLECULE: CNS(=O)(=O)c1cc(-c2nnc(-c3ccc(OC)c(OC)c3)o2)ccc1C
RP-LC retention time / s: 779

I. Cc1c(C(=O)C(=O)Nc2cccc(F)c2)c2ccccc2n1C
II. COc1ccc(S(=O)(=O)N2CCCCC2CC(=O)Nc2ncccn2)cc1 (stereo not given)
Ask | // compare: I vs II , metric RP-LC retention time, want the smaller Mark your answer with the label of the selected entry.
Reply | II
(II: 647 s, I: 960 s)

* * *

test: gradient 5% acetonitrile 3 min, to 50% in 2 min, to 85% in 15 min, held 3 min, 100 µL/min; conditions: column: Zorbax Extend-C18 2.1 x 50 mm; eluents: water / acetonitrile, 0.1% formic acid
PROPERTY_LABEL: RP-LC retention time (s)

A. CCn1c(C)c(-c2nc(C3CC3)no2)c(S(=O)(=O)NCC(C)C)c1C
B. CC(=O)NCCc1nc2ccccc2n1CCCOc1cccc2ccccc12
Ask | // compare: A vs B , metric RP-LC retention time, want the smaller Mark your answer with the label of the selected entry.
Reply | B

A. O=C(NCc1ccc(F)cc1)N1CCC(n2c(-c3ccco3)nc3cccnc32)C1 (centres undefined)
B. COc1ccc(-c2csc(C)n2)cc1S(=O)(=O)N1CCN(c2cccc(Cl)c2)CC1
Ask | // compare: A vs B , metric RP-LC retention time, want the smaller Mark your answer with the label of the selected entry.
Reply | A
(A: 730 s, B: 1170 s)

P. COc1ccccc1-c1noc(Cn2cnc3c(cnn3-c3ccc(Cl)cc3)c2=O)n1
Q. O=C(CN1CCN(Cc2cccc(Cl)c2)C1=O)NCc1ccncc1
Ask | // compare: P vs Q , metric RP-LC retention time, want the smaller Mark your answer with the label of the selected entry.
Reply | Q
(Q: 599 s, P: 1010 s)

P. CSc1ccc(NC(=O)CCl)cc1
Q. O=c1c2cc(-c3ccccc3Cl)nn2cnn1Cc1nc(-c2ccccc2)no1
Ask | // compare: P vs Q , metric RP-LC retention time, want the smaller Mark your answer with the label of the selected entry.
Reply | P
